A collection of binders and their measured EC50
Biological target: T1, recombinant human TfR1 (transferrin receptor protein 1) (human, UniProt P02786 89-760)
T1 construct: Recombinant protein in SPR and ELISA; they were assigned to this molecule; also called hTfR1; huTfR1
T1 sequence (P02786 89-760 limits assumed): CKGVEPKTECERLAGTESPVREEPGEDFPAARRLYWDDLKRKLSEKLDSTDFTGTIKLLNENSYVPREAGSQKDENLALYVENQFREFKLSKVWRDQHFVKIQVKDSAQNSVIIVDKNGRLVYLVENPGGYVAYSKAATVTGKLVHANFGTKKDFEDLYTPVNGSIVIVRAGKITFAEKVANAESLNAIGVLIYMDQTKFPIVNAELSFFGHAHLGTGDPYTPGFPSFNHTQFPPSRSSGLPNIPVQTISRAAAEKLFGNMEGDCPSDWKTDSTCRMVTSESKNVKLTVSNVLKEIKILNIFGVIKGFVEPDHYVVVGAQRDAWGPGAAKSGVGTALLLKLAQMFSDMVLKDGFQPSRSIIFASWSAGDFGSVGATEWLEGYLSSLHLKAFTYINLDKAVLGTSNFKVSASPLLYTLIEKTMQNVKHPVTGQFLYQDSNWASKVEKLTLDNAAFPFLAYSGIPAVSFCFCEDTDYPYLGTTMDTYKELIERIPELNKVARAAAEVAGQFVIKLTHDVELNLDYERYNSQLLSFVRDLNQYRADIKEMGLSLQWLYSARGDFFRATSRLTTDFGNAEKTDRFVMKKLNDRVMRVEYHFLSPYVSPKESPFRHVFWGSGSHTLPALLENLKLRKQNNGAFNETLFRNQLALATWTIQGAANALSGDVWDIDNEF
Experiment: ELISA, recombinant TfR1 coated, Fab-ASO300 conjugate (row 'Conjugate binding affinity ELISA')

| Binder | EC50 |
| --- | --- |
| conjugate of humanized anti-TfR Fab 3A4 VH3 (N54T)/Vκ4 with DMPK-targeting oligonucleotide ASO300 (Fab, V domains shown, oligonucleotide ASO300 conjugated to the Fab via linker; residue and chain not stated, also called 3A4 (VH3-N54T/Vk4) conjugate) VH: EVQLVQSGSELKKPGASVKVSCTASGFNIKDDYMYWVRQPPGKGLEWIGWIDPETGDTEYASKFQDRVTVTADTSTNTAYMELSSLRSEDTAVYYCTLWLRRGLDYWGQGTLVTVSS VL: DIVMTQSPLSLPVTPGEPASISCRSSKSLLHSNGYTYLFWFQQRPGQSPRLLIYRMSNLASGVPDRFSGSGSGTDFTLKISRVEAEDVGVYYCMQHLEYPFTFGGGTKVEIKR | 2.8 nM |
| conjugate of humanized anti-TfR Fab 5H12 VH5 (C33Y)/Vκ3 with DMPK-targeting oligonucleotide ASO300 (Fab, V domains shown, oligonucleotide ASO300 conjugated to the Fab via linker; residue and chain not stated, also called 5H12 (VH5-C33Y/Vk3) conjugate) VH: QVQLVQSGAEVKKPGASVKVSCKASGYSFTDYYINWVRQAPGQGLEWMGWIYPGSGNTRYSERFKGRVTITRDTSASTAYMELSSLRSEDTAVYYCAREDYYPYHGMDYWGQGTLVTVSS VL: DIVLTQSPDSLAVSLGERATINCRASESVDGYDNSFMHWYQQKPGQPPKLLIFRASNLESGVPDRFSGSGSRTDFTLTISSLQAEDVAVYYCQQSSEDPWTFGQGTKLEIKR | 33.4 nM |
| conjugate of humanized anti-TfR Fab 5H12 VH5 (C33D)/Vκ4 with DMPK-targeting oligonucleotide ASO300 (Fab, V domains shown, oligonucleotide ASO300 conjugated to the Fab via linker; residue and chain not stated, also called 5H12 (VH5-C33D/Vk4) conjugate) VH: QVQLVQSGAEVKKPGASVKVSCKASGYSFTDYDINWVRQAPGQGLEWMGWIYPGSGNTRYSERFKGRVTITRDTSASTAYMELSSLRSEDTAVYYCAREDYYPYHGMDYWGQGTLVTVSS VL: DIVMTQSPDSLAVSLGERATINCRASESVDGYDNSFMHWYQQKPGQPPKLLIFRASNLESGVPDRFSGSGSGTDFTLTISSLQAEDVAVYYCQQSSEDPWTFGQGTKLEIKR | 110 nM |
| conjugate of humanized anti-TfR Fab 3M12 VH3/Vκ2 with DMPK-targeting oligonucleotide ASO300 (Fab, V domains shown, oligonucleotide ASO300 conjugated to the Fab via linker; residue and chain not stated, also called 3M12 (VH3/Vk2) conjugate) VH: QVQLQESGPGLVKPSQTLSLTCSVTGYSITSGYYWNWIRQPPGKGLEWMGYITFDGANNYNPSLKNRVSISRDTSKNQFSLKLSSVTAEDTATYYCTRSSYDYDVLDYWGQGTTVTVSS VL: DIQMTQSPSSLSASVGDRVTITCRASQDISNFLNWYQQKPGQPVKLLIYYTSRLHSGVPSRFSGSGSGTDFTLTISSLQPEDFATYFCQQGHTLPYTFGQGTKLEIKR | 2.2 nM |
| conjugate of humanized anti-TfR Fab 3A4 VH3 (N54S)/Vκ4 with DMPK-targeting oligonucleotide ASO300 (Fab, V domains shown, oligonucleotide ASO300 conjugated to the Fab via linker; residue and chain not stated, also called 3A4 (VH3-N54S/Vk4) conjugate) VH: EVQLVQSGSELKKPGASVKVSCTASGFNIKDDYMYWVRQPPGKGLEWIGWIDPESGDTEYASKFQDRVTVTADTSTNTAYMELSSLRSEDTAVYYCTLWLRRGLDYWGQGTLVTVSS VL: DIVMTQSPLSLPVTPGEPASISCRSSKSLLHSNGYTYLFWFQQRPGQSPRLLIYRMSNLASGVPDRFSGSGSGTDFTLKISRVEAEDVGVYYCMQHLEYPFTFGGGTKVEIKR | 2.9 nM |
| conjugate of humanized anti-TfR Fab 3M12 VH4/Vκ3 with DMPK-targeting oligonucleotide ASO300 (Fab, V domains shown, oligonucleotide ASO300 conjugated to the Fab via linker; residue and chain not stated, also called 3M12 (VH4/Vk3) conjugate) VH: QVQLQESGPGLVKPSQTLSLTCTVTGYSITSGYYWNWIRQPPGKGLEWIGYITFDGANNYNPSLKNRVSISRDTSKNQFSLKLSSVTAEDTATYYCTRSSYDYDVLDYWGQGTTVTVSS VL: DIQMTQSPSSLSASVGDRVTITCRASQDISNFLNWYQQKPGQPVKLLIYYTSRLHSGVPSRFSGSGSGTDFTLTISSLQPEDFATYYCQQGHTLPYTFGQGTKLEIKR | 1.7 nM |
| conjugate of humanized anti-TfR Fab 5H12 VH5 (C33Y)/Vκ4 with DMPK-targeting oligonucleotide ASO300 (Fab, V domains shown, oligonucleotide ASO300 conjugated to the Fab via linker; residue and chain not stated) VH: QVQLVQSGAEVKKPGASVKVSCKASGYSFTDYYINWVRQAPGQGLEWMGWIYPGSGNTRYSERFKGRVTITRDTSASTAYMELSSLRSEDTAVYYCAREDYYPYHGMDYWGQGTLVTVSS VL: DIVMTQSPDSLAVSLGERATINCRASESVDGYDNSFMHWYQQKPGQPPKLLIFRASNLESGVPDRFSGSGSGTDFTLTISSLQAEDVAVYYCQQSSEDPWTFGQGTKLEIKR | 23.7 nM |
| conjugate of humanized anti-TfR Fab 3A4 VH3/Vκ4 with DMPK-targeting oligonucleotide ASO300 (Fab, V domains shown, oligonucleotide ASO300 conjugated to the Fab via linker; residue and chain not stated, also called 3A4 (VH3/Vk4) conjugate) VH: EVQLVQSGSELKKPGASVKVSCTASGFNIKDDYMYWVRQPPGKGLEWIGWIDPENGDTEYASKFQDRVTVTADTSTNTAYMELSSLRSEDTAVYYCTLWLRRGLDYWGQGTLVTVSS VL: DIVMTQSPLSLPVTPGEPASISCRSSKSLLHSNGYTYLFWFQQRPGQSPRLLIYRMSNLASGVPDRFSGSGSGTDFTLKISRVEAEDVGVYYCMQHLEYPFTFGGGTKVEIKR | 2.8 nM |
